Study system: Baculoviral IAP repeat-containing protein 2 (Homo sapiens, UniProt Q13490)
Sequence (Q13490 whole entry, the tested form may be a part): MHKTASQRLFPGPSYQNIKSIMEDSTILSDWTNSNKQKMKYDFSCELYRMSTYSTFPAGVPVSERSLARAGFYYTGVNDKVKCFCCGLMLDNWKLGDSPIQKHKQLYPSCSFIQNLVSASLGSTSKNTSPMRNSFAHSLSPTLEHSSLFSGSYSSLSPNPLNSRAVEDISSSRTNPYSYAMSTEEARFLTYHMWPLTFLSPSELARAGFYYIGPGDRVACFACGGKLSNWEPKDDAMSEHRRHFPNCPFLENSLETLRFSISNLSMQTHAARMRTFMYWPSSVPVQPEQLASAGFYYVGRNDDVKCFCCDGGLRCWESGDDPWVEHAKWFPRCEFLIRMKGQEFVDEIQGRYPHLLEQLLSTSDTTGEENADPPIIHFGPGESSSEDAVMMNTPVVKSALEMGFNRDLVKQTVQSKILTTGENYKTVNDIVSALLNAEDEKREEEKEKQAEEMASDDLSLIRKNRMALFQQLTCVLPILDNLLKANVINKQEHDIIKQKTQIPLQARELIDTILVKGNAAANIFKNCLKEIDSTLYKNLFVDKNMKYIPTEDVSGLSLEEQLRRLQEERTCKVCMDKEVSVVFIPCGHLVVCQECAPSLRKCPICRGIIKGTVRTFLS
Protocol notes: Binding affinity to cIAP1-BIR3 domain (unknown origin)
Quantity measured: IC50 (nM)
Give your result in nM as a bare value.

## Input Which IC50 value belongs to CN[C@@H](C)C(=O)N[C@H](C(=O)N1CCC[C@H]1C(=O)N[C@H]1c2ccccc2C[C@H]1OCC#CC#CCO[C@@H]1Cc2ccccc2[C@@H]1NC(=O)[C@@H]1CCCN1C(=O)[C@@H](NC(=O)[C@H](C)NC)C(C)(C)C)C(C)(C)C ?
## Output 15

----------
Study system: UniProt:P98170
Protocol notes: Binding affinity to XIAP-BIR3 domain (241 to 356 residues) (unknown origin) by fluorescence polarization-based competition assay
Field: pKd. Provide a value for each of the compounds that follow.
Expect pKd as a plain number equal to -log10 of the molar concentration.

## Input Which pKd value belongs to CN[C@@H](C)C(=O)N[C@H](C(=O)N1CCC[C@H]1C(=O)N[C@H]1CCc2ccccc21)C(C)(C)C ?
## Output 7.54

## Input Which pKd value belongs to CN[C@@H](C)C(=O)N[C@H](C(=O)N1CCC[C@H]1C(=O)Nc1snnc1-c1ccccc1)C1CCCCC1 [GDC-0152] ?
## Output 7.55

----------
Study system: E3 ubiquitin-protein ligase XIAP (Homo sapiens, UniProt P98170)
Sequence (P98170 whole entry, the tested form may be a part): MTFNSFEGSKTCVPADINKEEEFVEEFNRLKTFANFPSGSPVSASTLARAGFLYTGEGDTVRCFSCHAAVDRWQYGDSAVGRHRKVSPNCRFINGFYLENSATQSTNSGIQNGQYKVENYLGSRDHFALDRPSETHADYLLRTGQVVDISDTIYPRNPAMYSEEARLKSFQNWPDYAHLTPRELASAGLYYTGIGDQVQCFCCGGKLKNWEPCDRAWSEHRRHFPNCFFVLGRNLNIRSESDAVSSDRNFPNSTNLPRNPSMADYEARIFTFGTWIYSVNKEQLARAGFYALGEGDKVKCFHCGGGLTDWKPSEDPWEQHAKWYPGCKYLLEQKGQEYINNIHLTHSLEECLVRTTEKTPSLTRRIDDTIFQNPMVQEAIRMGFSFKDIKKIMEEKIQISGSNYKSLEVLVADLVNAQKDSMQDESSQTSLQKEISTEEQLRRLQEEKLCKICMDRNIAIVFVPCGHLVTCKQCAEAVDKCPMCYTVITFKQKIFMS
Protocol notes: Binding affinity to XIAP-BIR2/BIR3 domain (unknown origin)
Quantity measured: IC50 (nM)
Give your result in nM as a bare value.

## Input Which IC50 value belongs to CN[C@@H](C)C(=O)N[C@H]1CCCC[C@H]2CC[C@@H](C(=O)N[C@@H](c3ccccc3)c3cn(Cc4ccccc4)nn3)N2C1=O ?
## Output 376

----------
Field: EC50. Provide a value for each of the molecules that follow.
Study system: Caspase-9 (Homo sapiens, UniProt P55211)
Sequence (P55211 whole entry): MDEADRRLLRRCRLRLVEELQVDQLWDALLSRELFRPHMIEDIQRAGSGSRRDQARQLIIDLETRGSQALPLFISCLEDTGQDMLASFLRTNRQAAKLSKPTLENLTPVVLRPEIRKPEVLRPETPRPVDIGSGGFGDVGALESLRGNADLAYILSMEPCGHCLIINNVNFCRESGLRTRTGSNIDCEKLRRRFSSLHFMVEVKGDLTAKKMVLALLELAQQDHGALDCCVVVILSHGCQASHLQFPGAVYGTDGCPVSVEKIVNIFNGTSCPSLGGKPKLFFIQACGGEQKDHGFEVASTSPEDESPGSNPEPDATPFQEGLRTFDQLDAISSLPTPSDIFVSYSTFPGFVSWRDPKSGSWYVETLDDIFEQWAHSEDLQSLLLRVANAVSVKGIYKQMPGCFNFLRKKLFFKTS
Protocol notes: Inhibition of N-terminal CARD domain of caspase 9 (unknown origin)
Answer format: value, then unit.

## Input Which EC50 value belongs to CN[C@@H](C)C(=O)N[C@H](C(=O)N1CCC[C@H]1C(=O)N[C@H]1CCCc2ccccc21)C(C)(C)C ?
## Output 290 nM

## Input Which EC50 value belongs to CN[C@@H](C)C(=O)N[C@H](C(=O)N1CC[C@@H](Oc2ccccc2)[C@H]1C(=O)N[C@H]1CCCc2ccccc21)C(C)(C)C ?
## Output 240 nM

## Input Which EC50 value belongs to CN[C@@H](C)C(=O)N[C@H](C(=O)N1CCC[C@H]1C(=O)N[C@H]1CCCc2ccccc21)C1CCCCC1 ?
## Output 310 nM
